METHOD_NOTES: Mouse pharmacokinetics, intravenous
Assay type: in vivo
CONDITION_LABEL: plasma, male CD1 mice, single intravenous 5.925 mg/kg
Description: Mouse pharmacokinetics were acquired using bicyclic peptide 17-69-04-N004, which was dosed to one group of 12 male CD1 mice as a single intravenous, 5.925 mg/kg doses as a 5 mL/kg bolus of a 1.19 mg/mL solution. […] Precipitated proteins were removed by centrifugation and the supernatant was analysed by LC-MS/MS. Quantification of the samples was by reference to a calibration line prepared in control mouse plasma. […]
REPORTED_PROPERTY: Tmax

compound="CC[C@H](C)[C@@H]1NC(=O)[C@H](CC(=O)O)NC(=O)[C@H](Cc2ccc(O)cc2)NC(=O)[C@H](Cc2ccccc2)NC(=O)[C@H](CC(=O)O)NC(=O)[C@H](CCC(=O)O)NC(=O)[C@@H]2CSCc3cc(cc(c3)CSC[C@H](NC(C)=O)C(=O)N[C@@H](Cc3ccc(O)cc3)C(=O)N[C@@H](CC(N)=O)C(=O)N[C@@H](CCC(=O)O)C(=O)N[C@@H](Cc3ccccc3)C(=O)NCC(=O)N2)CSC[C@@H](C(N)=O)NC1=O [17-69-07-N004, Ac-(17-69-07) (wildtype)]" reported_property=Tmax result="5 min"

---

METHOD_NOTES: Mouse pharmacokinetics, intravenous
Type: in vivo
CONDITION_LABEL: plasma, male CD1 mice, single intravenous 5.925 mg/kg
REPORTED_PROPERTY: AUC(0-t) (ng·h/mL)

molecular_string=CC[C@H](C)[C@@H]1NC(=O)[C@H](CC(=O)O)NC(=O)[C@H](Cc2ccc(O)cc2)NC(=O)[C@H](Cc2ccccc2)NC(=O)[C@H](CC(=O)O)NC(=O)[C@H](CCC(=O)O)NC(=O)[C@@H]2CSCc3cc(cc(c3)CSC[C@H](NC(C)=O)C(=O)N[C@@H](Cc3ccc(O)cc3)C(=O)N[C@@H](CC(N)=O)C(=O)N[C@@H](CCC(=O)O)C(=O)N[C@@H](Cc3ccccc3)C(=O)NCC(=O)N2)CSC[C@@H](C(N)=O)NC1=O measurement_units=ng·h/mL quantitative_readout=4770

---

Recorded Kd by entry
MEASUREMENT_TARGET: MT1-MMP hemopexin domain (Homo sapiens, UniProt P50281)
Construct: residues Cys319-Gly511 from the human gene; His6 (N); made in house; host or cells: HEK293 (transient), pEXPR-IBA42 vector
METHOD_NOTES: Competition assay using fluorescence polarisation
Type: binding
CONDITION_LABEL: Table 8; substitutions at position 4; read-out: Kd
Numbered stars: 1 amine (or outer) side, 2 acyl side, 3 side chain; on linkers, the order of the positions; unused ones are H or OH. Bridge positions count the residues as written; N and C are the ends. Square brackets hold non-standard residues; d marks the D form. Peptide text beside a SMILES is read from it. 1Nal = N[C@@H](Cc1cccc2ccccc12)C(=O)O; TBMB = c1c(C[*:1])cc(C[*:3])cc1C[*:2]; Chg = N[C@H](C(=O)O)C1CCCCC1; Tle = CC(C)(C)[C@H](N)C(=O)O
REPORTED_PROPERTY: Kd (nM)

compound="CC[C@H](C)[C@@H]1NC(=O)[C@H](CC(=O)O)NC(=O)[C@H](Cc2ccc(O)cc2)NC(=O)[C@H](Cc2ccccc2)NC(=O)[C@H](CC(=O)O)NC(=O)[C@H](CCC(=O)O)NC(=O)[C@@H]2CSCc3cc(cc(c3)CSC[C@H](NC(C)=O)C(=O)N[C@@H](Cc3ccc(O)cc3)C(=O)N[C@@H](CC(N)=O)C(=O)N[C@@H](CCC(=O)O)C(=O)N[C@@H](Cc3ccc(Cl)c(Cl)c3)C(=O)NCC(=O)N2)CSC[C@@H](C(N)=O)NC1=O [17-69-07-N137, Ac-(17-69-07) 3,4-DCPhe4]" reported_property=Kd cmp== quantitative_readout=1.85
compound="CC[C@H](C)[C@@H]1NC(=O)[C@H](CC(=O)O)NC(=O)[C@H](Cc2ccc(O)cc2)NC(=O)[C@H](Cc2ccccc2)NC(=O)[C@H](CC(=O)O)NC(=O)[C@H](CCC(=O)O)NC(=O)[C@@H]2CSCc3cc(cc(c3)CSC[C@H](NC(C)=O)C(=O)N[C@@H](Cc3ccc(O)cc3)C(=O)N[C@@H](CC(N)=O)C(=O)N[C@@H](CCC(=O)O)C(=O)N[C@@H](C3CCCCC3)C(=O)NCC(=O)N2)CSC[C@@H](C(N)=O)NC1=O [17-69-07-N065, Ac-(17-69-07) Chg4] (Ac-CYNE[Chg]GCEDFYDIC-NH2; linker 1-7-14 via TBMB)" reported_property=Kd cmp=> quantitative_readout=5000
compound="CC[C@H](C)[C@@H]1NC(=O)[C@H](CC(=O)O)NC(=O)[C@H](Cc2ccc(O)cc2)NC(=O)[C@H](Cc2ccccc2)NC(=O)[C@H](CC(=O)O)NC(=O)[C@H](CCC(=O)O)NC(=O)[C@@H]2CSCc3cc(cc(c3)CSC[C@H](NC(C)=O)C(=O)N[C@@H](Cc3ccc(O)cc3)C(=O)N[C@@H](CC(N)=O)C(=O)N[C@@H](CCC(=O)O)C(=O)N[C@@H](Cc3cccc4ccccc34)C(=O)NCC(=O)N2)CSC[C@@H](C(N)=O)NC1=O [17-69-07-N067, Ac-(17-69-07) 1NAl4] (Ac-CYNE[1Nal]GCEDFYDIC-NH2; linker 1-7-14 via TBMB)" reported_property=Kd cmp== quantitative_readout=0.36
compound="CC[C@H](C)[C@@H]1NC(=O)[C@H](CC(=O)O)NC(=O)[C@H](Cc2ccc(O)cc2)NC(=O)[C@H](Cc2ccccc2)NC(=O)[C@H](CC(=O)O)NC(=O)[C@H](CCC(=O)O)NC(=O)[C@@H]2CSCc3cc(cc(c3)CSC[C@H](NC(C)=O)C(=O)N[C@@H](Cc3ccc(O)cc3)C(=O)N[C@@H](CC(N)=O)C(=O)N[C@@H](CCC(=O)O)C(=O)N[C@@H](C(C)(C)C)C(=O)NCC(=O)N2)CSC[C@@H](C(N)=O)NC1=O [17-69-07-N072, Ac-(17-69-07) tBuGly4] (Ac-CYNE[Tle]GCEDFYDIC-NH2; linker 1-7-14 via TBMB)" reported_property=Kd cmp=> quantitative_readout=5000

---

METHOD_NOTES: Mouse pharmacokinetics, intravenous
Type: in vivo
CONDITION_LABEL: plasma, male CD1 mice, single intravenous 5.925 mg/kg, read-out: Elimination Half-life
REPORTED_PROPERTY: half-life (min)

molecule="CC[C@H](C)[C@@H]1NC(=O)[C@H](CC(=O)O)NC(=O)[C@H](Cc2ccc(O)cc2)NC(=O)[C@H](Cc2ccccc2)NC(=O)[C@H](CC(=O)O)NC(=O)[C@H](CCC(=O)O)NC(=O)[C@@H]2CSCc3cc(cc(c3)CSC[C@H](NC(C)=O)C(=O)N[C@@H](Cc3ccc(O)cc3)C(=O)N[C@@H](CC(N)=O)C(=O)N[C@@H](CCC(=O)O)C(=O)N[C@@H](Cc3ccccc3)C(=O)NCC(=O)N2)CSC[C@@H](C(N)=O)NC1=O [17-69-07-N004, Ac-(17-69-07) (wildtype)]" reported_property=half-life quantitative_readout=14

---

MEASUREMENT_TARGET: MT1-MMP hemopexin domain (Homo sapiens, UniProt P50281)
Construct: residues Cys319-Gly511 from the human gene; His6 (N); made in house; host or cells: HEK293 (transient), pEXPR-IBA42 vector
METHOD_NOTES: Competition assay using fluorescence polarisation
Format: binding
CONDITION_LABEL: Table 8; substitutions at position 4; read-out: Kd
REPORTED_PROPERTY: Kd (µM)

molecular_string=CC[C@H](C)[C@@H]1NC(=O)[C@H](CC(=O)O)NC(=O)[C@H](Cc2ccc(O)cc2)NC(=O)[C@H](Cc2ccccc2)NC(=O)[C@H](CC(=O)O)NC(=O)[C@H](CCC(=O)O)NC(=O)[C@@H]2CSCc3cc(cc(c3)CSC[C@H](NC(C)=O)C(=O)N[C@@H](Cc3ccc(O)cc3)C(=O)N[C@@H](CC(N)=O)C(=O)N[C@@H](CCC(=O)O)C(=O)N[C@@H](CCc3ccccc3)C(=O)NCC(=O)N2)CSC[C@@H](C(N)=O)NC1=O reported_property=Kd measurement_units=µM quantitative_readout=0.0433

---

METHOD_NOTES: Mouse pharmacokinetics, intravenous
Assay type: in vivo
CONDITION_LABEL: plasma, male CD1 mice, single intravenous 5.925 mg/kg
REPORTED_PROPERTY: AUC(0-inf) (ng·h/mL)

molecular_string=CC[C@H](C)[C@@H]1NC(=O)[C@H](CC(=O)O)NC(=O)[C@H](Cc2ccc(O)cc2)NC(=O)[C@H](Cc2ccccc2)NC(=O)[C@H](CC(=O)O)NC(=O)[C@H](CCC(=O)O)NC(=O)[C@@H]2CSCc3cc(cc(c3)CSC[C@H](NC(C)=O)C(=O)N[C@@H](Cc3ccc(O)cc3)C(=O)N[C@@H](CC(N)=O)C(=O)N[C@@H](CCC(=O)O)C(=O)N[C@@H](Cc3ccccc3)C(=O)NCC(=O)N2)CSC[C@@H](C(N)=O)NC1=O reported_property=AUC(0-inf) quantitative_readout=4770
